Biological target: T1, human gamma (γ) common chain expressed on CHO cells (human, UniProt P31785 23-369)
T1 construct: whole, on cells; Control protein; also called human IL-2R-γ common subunit; human γ-common
T1 sequence (looked up): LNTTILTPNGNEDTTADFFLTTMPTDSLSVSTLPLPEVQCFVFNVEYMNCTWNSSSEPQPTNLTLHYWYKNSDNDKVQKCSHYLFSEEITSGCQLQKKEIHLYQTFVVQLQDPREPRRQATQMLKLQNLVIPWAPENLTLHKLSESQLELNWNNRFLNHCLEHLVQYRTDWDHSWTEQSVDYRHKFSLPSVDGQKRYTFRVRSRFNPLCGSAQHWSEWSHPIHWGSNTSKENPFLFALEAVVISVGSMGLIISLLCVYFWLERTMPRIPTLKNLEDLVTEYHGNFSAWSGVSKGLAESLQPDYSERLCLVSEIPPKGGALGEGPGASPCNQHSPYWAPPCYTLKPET
Assay: cell ELISA, CHO cells
Value kind: A450 (13 nM Ab) (A450)
Express the result in A450 but write the number alone.

Some solved entries appear below for comparison.
{"columns": ["Binder", "Reported"],
 "data": [
  ["AbG (antibody, IgG1, V domains shown, As for AbA: IgG1/lambda, CDR3 graft, residue limits derived; also called VHP/VL18) VH: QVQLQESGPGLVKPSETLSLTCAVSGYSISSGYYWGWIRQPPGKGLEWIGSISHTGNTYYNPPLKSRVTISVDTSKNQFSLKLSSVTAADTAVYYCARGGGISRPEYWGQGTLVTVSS VL: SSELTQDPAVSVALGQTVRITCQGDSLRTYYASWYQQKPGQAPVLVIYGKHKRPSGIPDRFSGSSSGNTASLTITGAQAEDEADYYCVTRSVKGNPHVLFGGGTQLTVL", 0.108],
  ["AbA (antibody, V domains shown, Human IgG1/lambda, transiently expressed; also called VHP/VL2) VH: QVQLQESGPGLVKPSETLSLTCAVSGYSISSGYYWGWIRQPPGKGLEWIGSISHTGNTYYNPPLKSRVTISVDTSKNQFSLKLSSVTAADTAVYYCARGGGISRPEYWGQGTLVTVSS VL: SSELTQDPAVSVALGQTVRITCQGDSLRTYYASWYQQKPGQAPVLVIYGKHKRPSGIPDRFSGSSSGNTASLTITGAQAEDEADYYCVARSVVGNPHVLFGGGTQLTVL", 0.111],
  ["AbP (antibody, human IgG1, V domains shown, CDR3 graft, residue limits derived as for m29; also called VHP/VL20; VHPTM/VL20) VH: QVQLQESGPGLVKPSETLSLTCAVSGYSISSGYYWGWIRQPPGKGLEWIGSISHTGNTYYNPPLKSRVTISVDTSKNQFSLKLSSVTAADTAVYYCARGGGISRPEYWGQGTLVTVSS VL: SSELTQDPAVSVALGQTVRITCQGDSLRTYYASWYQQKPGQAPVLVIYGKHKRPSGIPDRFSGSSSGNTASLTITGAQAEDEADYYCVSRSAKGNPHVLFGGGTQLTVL", 0.112],
  ["AbU (antibody, human IgG1, V domains shown, CDR3 graft, residue limits derived as for m29; also called VHP/VL25; VHPTM/VL25) VH: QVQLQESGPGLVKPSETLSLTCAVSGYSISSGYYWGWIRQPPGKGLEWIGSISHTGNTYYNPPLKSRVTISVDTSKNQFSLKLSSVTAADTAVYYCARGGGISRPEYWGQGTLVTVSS VL: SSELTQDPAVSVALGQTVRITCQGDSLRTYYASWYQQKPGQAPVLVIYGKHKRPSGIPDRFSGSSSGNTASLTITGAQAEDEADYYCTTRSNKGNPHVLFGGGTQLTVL", 0.104]
]}

Then this binder:
A450 (13 nM Ab) recorded for this binder, AbK (antibody, IgG1, V domains shown, As for AbA: IgG1/lambda, CDR3 graft, residue limits derived; also called VH3/VL3) VH: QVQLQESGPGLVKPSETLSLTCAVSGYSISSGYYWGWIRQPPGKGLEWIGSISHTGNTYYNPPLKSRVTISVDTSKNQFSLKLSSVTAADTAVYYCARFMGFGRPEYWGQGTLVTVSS VL: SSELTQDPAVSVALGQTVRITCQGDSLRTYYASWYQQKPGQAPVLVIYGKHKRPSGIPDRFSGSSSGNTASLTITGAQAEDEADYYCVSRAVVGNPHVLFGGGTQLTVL , is 0.108
